Assay: physchem
Details: pH 7.8
Description: Dissociation constant, pKa of the compound at pH 7.8
Readout type: pKa
Please give only the number in your answer, with no unit.

Example entries and their recorded answers appear below.
Just so you know, measured pKa for COc1ccc(O)c(C(=O)O)c1 came out at 4.94

Just so you know, measured pKa for O=C(O)c1cc(I)cc(I)c1O came out at 5.47

More entries:
Just so you know, measured pKa for O=C(O)c1ccc(I)cc1 came out at 3.89

Just so you know, measured pKa for O=C(O)c1cc(Br)ccc1O came out at 5.18

###

Below, each of the compounds is paired with its reported logP value.
Experiment: physchem
Conditions: octanol/aqueous phase
Description: Octanol-aqueous phase partition coefficient, log P of the compound
Please give only the number in your answer, with no unit.

Example entries and their recorded answers appear below.
Just so you know, measured logP for O=[N+]([O-])c1cccc(O)c1 came out at 2

Just so you know, measured logP for O=C(O)c1cc([N+](=O)[O-])ccc1O came out at 1.98

More entries:
Just so you know, measured logP for O=[N+]([O-])c1ccc(O)cc1 came out at 1.96

###

Experiment: physchem
Settings: pH 6.8
Description: Dissociation constant, pKa of the compound at pH 6.8
Readout type: pKa
Please give only the number in your answer, with no unit.

Example entries and their recorded answers appear below.
Just so you know, measured pKa for CC(=O)Nc1ccccc1 [ACETANILIDE] came out at 6.5

Just so you know, measured pKa for O=C(O)c1cccc([N+](=O)[O-])c1 came out at 3.4

Just so you know, measured pKa for O=[N+]([O-])c1ccccc1O [NITROPHENOLATE] came out at 0.2

Proceeding to the next compound to report its pKa.
Just so you know, measured pKa for Cc1ccc(N)cc1 came out at 1.5

###

Assay: physchem
Conditions: pH 7.8
Below, each of the molecules is paired with its reported pKa value.
Please give only the number in your answer, with no unit.

Example entries and their recorded answers appear below.
Just so you know, measured pKa for O=C(O)c1cc(I)ccc1O came out at 5.15

Just so you know, measured pKa for O=C(O)c1ccc(Cl)c(Cl)c1 came out at 4.14

Just so you know, measured pKa for O=C(O)c1cccc(Br)c1 came out at 3.94

Just so you know, measured pKa for O=C(O)c1ccccc1Cl came out at 4.88

Just so you know, measured pKa for O=C(O)c1cc([N+](=O)[O-])ccc1O came out at 5.48

Proceeding to the next molecule to report its pKa.
Just so you know, measured pKa for O=C(O)c1cccc(O)c1 [3-HYDROXYBENZOIC ACID] came out at 3.74
